- System: HACAT
- protocol details: qHTS assay to identify novel small-molecules to repurpose for Merkel cell carcinoma treatment (AID 1296009); also: nearly all actives have a fitted effect of over 60% in size
- experimental parameters: MCC and control cell lines, CellTiter-Glo viability, 72 h; at 44.8 µM (top of the series) unless noted
Records with an inconclusive call do not appear. The source made the active and inactive calls. Calls follow the shape of the dose curve; as a rule, active = well fitted inhibition curve with a large enough effect; inconclusive = small, poorly fitted or top-dose-only effect; inactive = flat fitted curve, though single readings scatter.
readout kind: outcome

# annotated cases, reported outcome shown
[
  {
    "compound": "O=C(O[C@H]1[C@@H]2C[C@@H]3OC[C@@](O)([C@H]2[C@H](O[C@@H]2O[C@H](CO)[C@@H](O)[C@H](O)[C@H]2O)O3)[C@@H]1O)c1ccccc1",
    "experimental target": "HACAT",
    "outcome": "inactive [at 17.4 µM]"
  },
  {
    "compound": "CC(=O)N[C@H]1CCN(c2ccc(C3=NOC(CN[S+](=O)([O-])C(C)C)C3)cc2F)C1 (stereo partly drawn)",
    "experimental target": "HACAT",
    "outcome": "inactive"
  },
  {
    "compound": "COc1cc(CCc2ccccc2)c(C(=O)O)c2c1CC(C(C)(C)O)O2 (stereo not drawn)",
    "experimental target": "HACAT",
    "outcome": "inactive"
  },
  {
    "compound": "CC(=O)N1CCN(NC(=O)c2ccc(F)cc2)CC1",
    "experimental target": "HACAT",
    "outcome": "inactive"
  },
  {
    "compound": "CC1CCC2(NC1)OC1C(=O)C3C4CCC5CC(O[C@@H]6O[C@H](CO)[C@@H](O)[C@H](O)[C@H]6O[C@@H]6O[C@@H](C)[C@H](O)[C@@H](O)[C@H]6O)CCC5(C)C4CCC3(C)C1C2C (stereo partly drawn)",
    "experimental target": "HACAT",
    "outcome": "inactive [at 17.4 µM]"
  }
]

Given C[C@@H]1O[C@@H](OC[C@H]2O[C@@H](OCCc3ccccc3)[C@H](O)[C@@H](O)[C@@H]2O)[C@H](O)[C@H](O)[C@H]1O , state its recorded outcome.
inactive [at 17.4 µM]

Given CC(C)c1ccc(CC(=O)N2CCC[C@@H](c3cccc(OC(C)(C)C(=O)O)c3)C2)cc1 , state its recorded outcome.
inactive

----------
- protocol details: qHTS drug screen for cell cycle checkpoint inhibitors in PARPi-resistant BRCA-mutant ovarian cancer cell lines. (AID 1963452)
- experimental parameters: PEO1/OlaR viability, CellTiter-Glo luminescence, 96 h; measured here: PEO4 Z-AUC; stronger effect = lower value
- Source text: Women's Malignancies Branch, Center for Cancer Research (CCR), National Cancer Institute (NCI), National Institutes of Health (NIH), Bethesda, MD Poly (ADP-ribose) polymerase inhibitors (PARPis) have changed the treatment paradigm in breast cancer gene (BRCA) - mutant high-grade serous ovarian carcinoma (HGSC). […] 6; Detection; Luminescence, PHERAstar (BMG Labtech) plate reader. […] 6. Luminescence readings were taken using PHERAstar (BMG Labtech). […]
readout kind: Z-AUC
No unit in the answer, please; the number alone is enough.

# annotated cases, reported Z-AUC shown
[
  {
    "compound": "CNc1nc(Nc2cnn([C@H]3CCN(C4COC4)C[C@@H]3F)c2Cl)ncc1C(F)(F)F",
    "obs value": 0.0395
  },
  {
    "compound": "C[C@H](CCC(=O)O)[C@H]1CC[C@H]2[C@@H]3[C@H](O)C[C@@H]4C[C@H](O)CC[C@]4(C)[C@H]3CC[C@]12C",
    "obs value": 0.917
  }
]

Given CC(C)Nc1cc(-c2c[nH]c(C(=O)N[C@H](CO)c3cccc(Cl)c3)c2)c(Cl)cn1 , state its recorded Z-AUC.
-1.82

Given Cc1ccc(C(=O)Nc2ccc(Oc3cc4cnn(C)c4cc3-c3cn[nH]c3)c(F)c2)c(=O)n1-c1ccc(F)cc1 , state its recorded Z-AUC.
-0.211

Given COc1cc(N2CCC(O)CC2)ccc1Nc1cc(Nc2ccccc2S(=O)(=O)C(C)C)c2cc[nH]c2n1 , state its recorded Z-AUC.
0.959

Given Cc1nn(C)c2c1C(c1ccc(C(F)(F)F)cc1)C(C#N)=C(N)O2 (centres undefined) , state its recorded Z-AUC.
1.26
